assayed system: acetylcholine receptor (Homo sapiens, UniProt P02708)
Sequence (P02708 21-457): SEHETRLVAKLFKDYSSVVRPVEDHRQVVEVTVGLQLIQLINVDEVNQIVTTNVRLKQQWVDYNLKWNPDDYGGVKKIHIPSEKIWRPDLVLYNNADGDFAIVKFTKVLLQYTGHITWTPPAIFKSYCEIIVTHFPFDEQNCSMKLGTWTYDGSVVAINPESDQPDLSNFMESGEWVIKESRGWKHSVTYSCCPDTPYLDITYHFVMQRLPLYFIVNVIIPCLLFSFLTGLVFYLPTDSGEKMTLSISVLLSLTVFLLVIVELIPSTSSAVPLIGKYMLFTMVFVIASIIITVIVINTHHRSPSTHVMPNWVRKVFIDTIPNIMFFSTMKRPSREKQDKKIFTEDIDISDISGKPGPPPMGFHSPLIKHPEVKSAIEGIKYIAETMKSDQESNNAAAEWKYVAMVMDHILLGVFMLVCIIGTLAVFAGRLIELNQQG
test method notes: SPR binding affinity (RU) of optimized 5mer/6mer/7mer peptides, Examples 6-7
condition context: SPR, peptides at 10 μM
No end group written: not given here.
Would you mind telling me the reported Binding affinity (RU) of each entry?
Output spec: scalar in RU, unitless text.

Q: Quick one: Binding affinity (RU) for RWRYKR [6mer-2-136] ?
A: 194

Q: Quick one: Binding affinity (RU) for RRGVRR [6mer-1-210] ?
A: 184

Q: Quick one: Binding affinity (RU) for KWRQKR [6mer-2-233] ?
A: 190

Q: Quick one: Binding affinity (RU) for RKSLLR [Espep2-6mer, RKSLLR] ?
A: 35

Q: Quick one: Binding affinity (RU) for RKRIRR [6mer-1-43, RKRIRR] ?
A: 548

---

assayed system: acetylcholine receptor (Homo sapiens)
test method notes: SPR binding affinity (RU) of optimized 5mer/6mer/7mer peptides, Examples 6-7
condition context: SPR, Resonance Units; peptides tested at 10 μM; 6mer-1 Bottom sequence
readout: Binding affinity (Ru)
Output spec: scalar in Ru, unitless text.

Q: Quick one: Binding affinity for 6mer-1-1127 (RKMMMK) ?
A: 34

Q: Quick one: Binding affinity for 6mer-1-1029 (RRCMAK) ?
A: 40

Q: Quick one: Binding affinity for 6mer-1-1087 (KKPWKR) ?
A: 27

Q: Quick one: Binding affinity for 6mer-1-1014 (KKNAWR) ?
A: 25

Q: Quick one: Binding affinity for 6mer-1-1080 (KKHNMR) ?
A: 38

Q: Quick one: Binding affinity for 6mer-1-1013 (KKTTNK) ?
A: 29

Q: Quick one: Binding affinity for 6mer-1-1162 (KKCDHR) ?
A: 41

Q: Quick one: Binding affinity for 6mer-1-1190 (KKCMKR) ?
A: 29

Q: Quick one: Binding affinity for 6mer-1-1172 (RRFNFR) ?
A: 23

Q: Quick one: Binding affinity for 6mer-1-1171 (RKIAFK) ?
A: 40

Q: Quick one: Binding affinity for 6mer-1-1084 (KKCCPK) ?
A: 25

Q: Quick one: Binding affinity for 6mer-1-1138 (KRDCFR) ?
A: 21

Q: Quick one: Binding affinity for 6mer-1-1021 (KKHDIK) ?
A: 41

Q: Quick one: Binding affinity for 6mer-1-1095 (RRCHVK) ?
A: 27

Q: Quick one: Binding affinity for 6mer-1-1192 (RKDDDR) ?
A: 36

Q: Quick one: Binding affinity for 6mer-1-1152 (RKYKEK) ?
A: 23

Q: Quick one: Binding affinity for 6mer-1-1151 (KKKEAK) ?
A: 34

Q: Quick one: Binding affinity for 6mer-1-1085 (KREAMK) ?
A: 33

Q: Quick one: Binding affinity for 6mer-1-1175 (RKTWEK) ?
A: 23

Q: Quick one: Binding affinity for 6mer-1-1009 (RKMSKK) ?
A: 29

Q: Quick one: Binding affinity for 6mer-1-1074 (KRTCGR) ?
A: 24

Q: Quick one: Binding affinity for 6mer-1-1067 (RRKHWK) ?
A: 38

Q: Quick one: Binding affinity for 6mer-1-1179 (KRMTPR) ?
A: 40

Q: Quick one: Binding affinity for 6mer-1-1022 (RKDTVR) ?
A: 22

Q: Quick one: Binding affinity for 6mer-1-1184 (RRDTVK) ?
A: 30

Q: Quick one: Binding affinity for 6mer-1-1088 (RRETHK) ?
A: 38

Q: Quick one: Binding affinity for 6mer-1-1133 (KKPNIK) ?
A: 24

Q: Quick one: Binding affinity for 6mer-1-1081 (KRPSNK) ?
A: 23

Q: Quick one: Binding affinity for 6mer-1-1160 (RRDWAK) ?
A: 29

Q: Quick one: Binding affinity for 6mer-1-1193 (KKPTNK) ?
A: 33

Q: Quick one: Binding affinity for 6mer-1-1004 (RKHSHR) ?
A: 41

Q: Quick one: Binding affinity for 6mer-1-1146 (KKMMPK) ?
A: 34

Q: Quick one: Binding affinity for 6mer-1-1178 (RKKMAK) ?
A: 29

Q: Quick one: Binding affinity for 6mer-1-1165 (RRATWR) ?
A: 29

---

assayed system: acetylcholine receptor (Homo sapiens)
test method notes: SPR binding affinity (RU) of optimized 5mer/6mer/7mer peptides, Examples 6-7
condition context: SPR, Resonance Units; peptides tested at 10 μM; 6mer-2 Bottom sequence
readout: Binding affinity (Ru)
Output spec: scalar in Ru, unitless text.

Q: Quick one: Binding affinity for 6mer-2-792 (RAEDKR) ?
A: 13

Q: Quick one: Binding affinity for 6mer-2-686 (KTWEKK) ?
A: 21

Q: Quick one: Binding affinity for 6mer-2-630 (RYAFRR) ?
A: 27

Q: Quick one: Binding affinity for 6mer-2-774 (KFDARK) ?
A: 17

Q: Quick one: Binding affinity for 6mer-2-734 (KHCHRR) ?
A: 17

Q: Quick one: Binding affinity for 6mer-2-790 (RCAGRR) ?
A: 23

Q: Quick one: Binding affinity for 6mer-2-808 (RKKFKK) ?
A: 21

Q: Quick one: Binding affinity for 6mer-2-741 (KNEKKR) ?
A: 30

Q: Quick one: Binding affinity for 6mer-2-847 (RYCHKR) ?
A: 22

Q: Quick one: Binding affinity for 6mer-2-798 (RDTPKK) ?
A: 17

Q: Quick one: Binding affinity for 6mer-2-903 (KKNPKK) ?
A: 40

Q: Quick one: Binding affinity for 6mer-2-665 (KCAERR) ?
A: 18

Q: Quick one: Binding affinity for 6mer-2-618 (KHHKKR) ?
A: 12

Q: Quick one: Binding affinity for 6mer-2-846 (RFSFKR) ?
A: 30

Q: Quick one: Binding affinity for 6mer-2-688 (RPMFRK) ?
A: 13

Q: Quick one: Binding affinity for 6mer-2-678 (KEWWRR) ?
A: 32

Q: Quick one: Binding affinity for 6mer-2-690 (KFTMRK) ?
A: 13

Q: Quick one: Binding affinity for 6mer-2-896 (RTCARR) ?
A: 30

Q: Quick one: Binding affinity for 6mer-2-687 (KADGRK) ?
A: 16

Q: Quick one: Binding affinity for 6mer-2-816 (RKMGKR) ?
A: 15

Q: Quick one: Binding affinity for 6mer-2-814 (RYMERK) ?
A: 28

Q: Quick one: Binding affinity for 6mer-2-641 (REEFRR) ?
A: 12

Q: Quick one: Binding affinity for 6mer-2-607 (KKWVKR) ?
A: 31

Q: Quick one: Binding affinity for 6mer-2-869 (RHDHKR) ?
A: 18

Q: Quick one: Binding affinity for 6mer-2-833 (RKTWRR) ?
A: 14

Q: Quick one: Binding affinity for 6mer-2-636 (KMAPKR) ?
A: 21

Q: Quick one: Binding affinity for 6mer-2-743 (KHTMKR) ?
A: 18

Q: Quick one: Binding affinity for 6mer-2-721 (RHSKKK) ?
A: 26

Q: Quick one: Binding affinity for 6mer-2-613 (KAANRR) ?
A: 18

Q: Quick one: Binding affinity for 6mer-2-987 (RCHPKK) ?
A: 22

Q: Quick one: Binding affinity for 6mer-2-769 (RCPFRK) ?
A: 13

Q: Quick one: Binding affinity for 6mer-2-650 (RFKARK) ?
A: 18

Q: Quick one: Binding affinity for 6mer-2-806 (KHCVRK) ?
A: 30

Q: Quick one: Binding affinity for 6mer-2-647 (KTEPKR) ?
A: 19

Q: Quick one: Binding affinity for 6mer-2-844 (RDPKKK) ?
A: 22

Q: Quick one: Binding affinity for 6mer-2-680 (KNHGKR) ?
A: 15

Q: Quick one: Binding affinity for 6mer-2-879 (RTMDRR) ?
A: 19

Q: Quick one: Binding affinity for 6mer-2-758 (RFSFKK) ?
A: 18

Q: Quick one: Binding affinity for 6mer-2-895 (KYMAKK) ?
A: 28

Q: Quick one: Binding affinity for 6mer-2-917 (RFCWRK) ?
A: 23

Q: Quick one: Binding affinity for 6mer-2-902 (KPDVRK) ?
A: 26

Q: Quick one: Binding affinity for 6mer-2-718 (KYTFKR) ?
A: 12

Q: Quick one: Binding affinity for 6mer-2-705 (RENFKK) ?
A: 11

Q: Quick one: Binding affinity for 6mer-2-963 (KAKHRR) ?
A: 37

Q: Quick one: Binding affinity for 6mer-2-760 (KIPVKK) ?
A: 15

Q: Quick one: Binding affinity for 6mer-2-935 (KKCNKK) ?
A: 22

Q: Quick one: Binding affinity for 6mer-2-620 (RHTGRR) ?
A: 33

Q: Quick one: Binding affinity for 6mer-2-861 (KDTDRK) ?
A: 21

Q: Quick one: Binding affinity for 6mer-2-970 (KDDVRR) ?
A: 27

Q: Quick one: Binding affinity for 6mer-2-701 (KTWAKR) ?
A: 23

Q: Quick one: Binding affinity for 6mer-2-953 (KESVKK) ?
A: 25

Q: Quick one: Binding affinity for 6mer-2-955 (RMPERR) ?
A: 29

Q: Quick one: Binding affinity for 6mer-2-642 (KTENKK) ?
A: 16

Q: Quick one: Binding affinity for 6mer-2-984 (KDMWKK) ?
A: 43

Q: Quick one: Binding affinity for 6mer-2-949 (RPNARR) ?
A: 39

Q: Quick one: Binding affinity for 6mer-2-608 (RCNHKK) ?
A: 32

Q: Quick one: Binding affinity for 6mer-2-883 (RTNEKR) ?
A: 22

Q: Quick one: Binding affinity for 6mer-2-934 (KYKDRR) ?
A: 26

Q: Quick one: Binding affinity for 6mer-2-611 (RIKMRR) ?
A: 22

Q: Quick one: Binding affinity for 6mer-2-974 (RFDDRR) ?
A: 38

Q: Quick one: Binding affinity for 6mer-2-661 (RMKAKK) ?
A: 29

Q: Quick one: Binding affinity for 6mer-2-756 (KPTNRK) ?
A: 26

Q: Quick one: Binding affinity for 6mer-2-829 (KKKIRR) ?
A: 22

Q: Quick one: Binding affinity for 6mer-2-857 (KHTEKK) ?
A: 20

Q: Quick one: Binding affinity for 6mer-2-773 (KPDARR) ?
A: 11

Q: Quick one: Binding affinity for 6mer-2-820 (RPNNKK) ?
A: 24

Q: Quick one: Binding affinity for 6mer-2-748 (RFDKKR) ?
A: 28

Q: Quick one: Binding affinity for 6mer-2-940 (RNENKK) ?
A: 41

Q: Quick one: Binding affinity for 6mer-2-768 (KYMGRK) ?
A: 22
